The origin of these recorded values is ChEMBL document CHEMBL1139192.

target: Protein kinase C gamma type (Homo sapiens) (UniProt P05129); assay: Residual activity of human PKCgamma at 1 uM relative to control
Measured Property: residual activity (%)

# Smiles Notation, residual activity / %
measured = [
    ("O=C1NC(=O)C2=C1c1cn(c3ccccc13)CCCc1ccc(c(N3CCCC3)n1)CCCn1cc2c2ccccc21", 102),
    ("CN(C)c1cc2cc(n1)CCCn1cc(c3ccccc31)C1=C(C(=O)NC1=O)c1cn(c3ccccc13)CCC2", 107),
    ("O=C1NC(=O)C2=C1c1cn(c3ccccc13)CCCc1cc(nc(N3CCCC3)c1)CCCn1cc2c2ccccc21", 99),
    ("CN(C)c1nc2ccc1CCCn1cc(c3ccccc31)C1=C(C(=O)NC1=O)c1cn(c3ccccc13)CC2", 91),
]
